Tested on: osteoclast precursors
Test: Osteoclast tartrate-resistant acid phosphatase assay
Format: cell-based
Conditions: Osteoclast, 7-14 days, RANKL and M-CSF
Each record here notes measured IC50.

> print(dat)
                                   molecule  value.kind  value.measured
1  Cc1cn(-c2cc(Oc3cnc(NC(=O)N4CCN(C)C4=O)cc3C)ccn2)cn1        IC50  100 to 1000 nM
2  COCCN1CCN(C(=O)Nc2ccc(Oc3ccnc(-c4cn(C)cn4)c3)c(C)n2)C1=O        IC50  100 to 1000 nM
3  Cc1cc(NC(=O)N2CCN(C3CC3)C2=O)nc(C)c1Oc1ccnc(-c2cnn(C)c2)c1        IC50    10 to 100 nM
4  Cn1cc(-c2cc(Oc3ccc(NC(=O)N4CCN(C5CCCC5)C4=O)nc3)ccn2)cn1        IC50         < 10 nM
5  Cc1nc(NC(=O)N2CCN(C3CCOCC3)C2=O)ccc1Oc1ccnc(-c2cnn(C)c2)c1        IC50    10 to 100 nM

Asked: GET /values?readout=IC50&system=osteoclast precursors&item= "Cc1nc(NC(=O)N2CCN(C(C)(C)C)C2=O)ccc1Oc1ccnc(-c2cnn(C)c2)c1"
Given back: 10 to 100 nM

Asked: GET /values?readout=IC50&system=osteoclast precursors&item= "CC(=O)Nc1cc(Oc2cc(F)c(NC(=O)N3CCN(C4CCOCC4)C3=O)cc2Cl)ccn1"
Given back: 100 to 1000 nM

Asked: GET /values?readout=IC50&system=osteoclast precursors&item= "CCc1nc(NC(=O)N2CCN(C3CCCC3)C2=O)ccc1Oc1ccnc(-c2cnc(C)s2)c1"
Given back: 100 to 1000 nM
